Entries and their measured inhibition follow.
TARGET UNDER TEST: SARS-CoV-2 Main Protease (SARS-CoV-2)
PROTOCOL CONDITIONS: 20.0 µM
Give your result in % as a bare value.

Example entries begin here.
- COMPOUND: "Cc1ccnc2[nH]c(CC3CCN(C(=O)CCl)CC3)nc12"
  MEASUREMENT TYPE: "inhibition"
  VALUE REPORTED: 5.18
- COMPOUND: "CCn1c(=O)n(CC(=O)NCc2cnccn2)c2ccccc21"
  MEASUREMENT TYPE: "inhibition"
  VALUE REPORTED: 1.73
- COMPOUND: "O=C(Nc1ccccc1)c1cc(Cl)ccc1O"
  MEASUREMENT TYPE: "inhibition"
  VALUE REPORTED: 3.75

Record for O=C(NCC(O)Cn1ccnn1)c1ccccc1OC1CCC1 (configuration not stated) under target or system SARS-CoV-2 Main Protease (SARS-CoV-2): inhibition reported as -1.11

Record for `CC(C)Cn1cc(NC(=O)NCc2ccco2)c2ccccc2c1=O` under target or system SARS-CoV-2 Main Protease (SARS-CoV-2): inhibition reported as 50.5

Observed inhibition on SARS-CoV-2 Main Protease (SARS-CoV-2), entry `C=CC(=O)N1CCN(S(=O)(=O)c2ccccc2-c2ccc(Nc3ccc(C#N)cn3)cc2)CC1` , equals -11.3

Simply: `Cc1ccc(NC2CCN(c3ccc(S(N)(=O)=O)cc3)CC2)cc1` , SARS-CoV-2 Main Protease (SARS-CoV-2), inhibition = 2.67

// compound O=C(C(F)Cl)N1CCN(Cc2cccc3ccccc23)CC1 (configuration not stated) , assay SARS-CoV-2 Main Protease (SARS-CoV-2), inhibition value: 20.5

Field inhibition (SARS-CoV-2 Main Protease (SARS-CoV-2)), entry `O=S(=O)(NC1(Cc2ccccc2)CCOCC1)c1cccnc1` : -34.8

Reported SARS-CoV-2 Main Protease (SARS-CoV-2) inhibition for item Cc1ccncc1NC(=O)C1C2CCOCC21 (configuration not stated) was -18.9

The compound `COc1ccc(CN2C(=O)C(=O)c3cc(Br)cc(C)c32)cc1OC` on SARS-CoV-2 Main Protease (SARS-CoV-2): inhibition was -2.84

Simply: `Cn1cc(NC(=O)NCCc2ccsc2)c2ccccc2c1=O` , SARS-CoV-2 Main Protease (SARS-CoV-2), inhibition = 14.5

---

TARGET UNDER TEST: SARS-CoV-2 Main Protease (SARS-CoV-2) (UniProt P0DTD1)
PROTOCOL CONDITIONS: 50.0 µM
Below: a set of entries, each annotated with reported inhibition.
Report only the number, with the unit % understood.

- COMPOUND: "CC(C)N(C)CC1CCN(c2ccc(S(N)(=O)=O)cc2)CC1"
  READOUT UNIT: "%"
  VALUE REPORTED: 0

The compound identified as `Cc1cccc(C)c1OCC(=O)NCCc1ccccc1` registered its inhibition at 0

// field: inhibition; key: `Cc1ccncc1NC(=O)CCNc1ccc(S(N)(=O)=O)cc1` ; value = 0

Entry `COc1ccc(OCc2ccccc2)cc1-c1cc(=O)c2ccccc2o1` ; inhibition = 7.52

inhibition reported for this compound Cc1cccc(NC(=O)C(C#N)C(=O)C2CC2)c1 (stereo unspecified) : 0.517

GET /value?item= `CCNc1ncc(C#N)cc1CN1CCN(C(=O)CCl)CC1` &field=inhibition returns 99.7

---

TARGET UNDER TEST: SARS-CoV-2 Main Protease (SARS-CoV-2) (UniProt P0DTD1)
PROTOCOL CONDITIONS: 50.0 µM
Measured inhibition values are reported for all entries that follow.

- MOLECULE: "CC(=O)N[C@@H](C)C(=O)Nc1cnccc1C (stereo in doubt)"
  inhibition: "-7.91%"
- MOLECULE: "O=C(NCc1cccnc1)Nc1cccc(OCC(F)F)n1"
  inhibition: "8.28%"

Record `CSc1ccncc1NC(=O)Cc1ccc2c(c1)CCCC2` , field inhibition: 11.6%

The molecule CCN(CC1COc2ccccc2O1)C(=O)c1cc(=O)[nH]c2ccc(Cl)cc12 (stereo not drawn) showed inhibition equal to 2.69%

// field: inhibition; key: `Cc1ccccc1NC1CCN(c2ccc(S(N)(=O)=O)cc2)CC1` ; value = 7.22%

Given item `Cn1cc(NC(=O)NCCc2ccsc2)c2ccccc2c1=O` , the value recorded as its inhibition is 8.36%

---

TARGET UNDER TEST: SARS-CoV-2 Main Protease (SARS-CoV-2) (UniProt P0DTD1)
PROTOCOL CONDITIONS: 50.0 µM
Below: a set of entries, each annotated with reported inhibition.
Write the value in % as a bare number.

# count of solved cases: 2
- COMPOUND: "Cc1cc(NC(=O)Cn2cncc2C)cc(C)c1Cl"
  MEASUREMENT TYPE: "inhibition"
  READOUT UNIT: "%"
  VALUE REPORTED: 25.8
- COMPOUND: "NS(=O)(=O)c1ccc(N2CCC(N3CCCCCC3)CC2)cc1"
  MEASUREMENT TYPE: "inhibition"
  READOUT UNIT: "%"
  VALUE REPORTED: 100

inhibition reported for this compound `Cn1nnnc1NC(=O)Cc1csc(C(C)(C)C)n1` : 0

Given item `CC(C)(C)c1ccc(N(C(=O)c2ccco2)[C@H](C(=O)NCCc2cccc(F)c2)c2cccnc2)cc1` , the value recorded as its inhibition is 100

`O=C(C1CCN(c2ccncc2)CC1)N1CCS(=O)(=O)CC1` yielded inhibition of 42.9

---

TARGET UNDER TEST: SARS-CoV-2 Main Protease (SARS-CoV-2) (UniProt P0DTD1)
PROTOCOL CONDITIONS: 50.0 µM
Catalogue of compounds with associated inhibition
Report the figure in % without appending any unit label.

- COMPOUND: "CC(=O)O[C@@H]1OC2OC(=O)[C@H](C)C3=C([C@@]4(C)CCCC(C)(C)C4)CCC1C32 (stereo in doubt)"
  inhibition [%]: 0
- COMPOUND: "N#Cc1cncc(NC(=O)Nc2cccnc2)c1"
  inhibition [%]: 17.4
- COMPOUND: "O=C(NCCNc1ccnc2cc(Cl)ccc12)Nc1ccc(F)cc1"
  inhibition [%]: 0
- COMPOUND: "O=C(Nc1cnccc1Cl)c1cccc(Cl)c1"
  inhibition [%]: 10.5
- COMPOUND: "CNCc1c[nH]c2ccc(F)cc12"
  inhibition [%]: 16.1
- COMPOUND: "COc1ccncc1NC(=O)C(C)(C)c1cc(F)cc(C#N)c1"
  inhibition [%]: 40.6

# inhibition (compound: `O=C(CCl)N1CCN(Cc2cc(O)ccc2O)CC1` ) is 89.9

According to the records, this compound `Cc1cnc2c(-c3ccc4[nH]ncc4c3)c(-c3ccc(F)cc3)nn2c1` displays inhibition of 34.7

# inhibition (compound: Nc1cccc(C2CN(C(=O)CCl)Cc3ccccc32)c1 (stereo not given) ) is 100

get_value(item= N#CC(C(=O)Nc1ccccc1)C(=O)c1cccs1 (stereo not given) , readout=inhibition) returns 0

// inhibition value for `O=C(NCCN1CCN(C(=O)CCl)CC1)c1cccc2ccccc12` : 23.8

inhibition reported for this compound C=CC(=O)N(c1ccc(C(C)(C)C)cc1)C(C(=O)NC(C)(C)C)c1cncc(Br)c1 (stereo not given) : 0

The measured inhibition associated with `O=C(c1cc(=O)[nH]c2cc(F)ccc12)N1CCN(S(=O)(=O)c2ccccc2)CC1` reads 0

Entry `COc1ccc2c(c1F)NC(=O)C2=O` — recorded inhibition = 7.79

Record summary for `O=C(NCc1cccnc1)Nc1cccc(OCC(F)F)n1` : reported inhibition = 4.42

Measured inhibition of C=CC(=O)N(c1ccc(C(C)(C)C)cc1)C(C(=O)NCC)c1cccnc1 (stereo not given) : 100

Lab note: measured inhibition of `O=C(Nc1cccnc1)Nc1cc(O)cc(Cl)c1` was 19.4

GET /value?item= C=CC(=O)N(c1ccc(C(C)(C)C)cc1)C(C(=O)NC)c1cccnc1 (stereo not given) &field=inhibition returns 100

---

TARGET UNDER TEST: UniProtKB P0DTD1
PROTOCOL CONDITIONS: 50.0 µM
MEASUREMENT TYPE: inhibition (%)
Numeric only. Scale: %

Solved cases (5 shown):
- MOLECULE: "Cc1cc(O)c2c(c1)C1(O)CC(C2=O)C2=C1C(=O)c1c(O)cccc1C2=O (stereo unspecified)"
  TARGET UNDER TEST: "UniProtKB P0DTD1"
  inhibition / %: 81.1
- MOLECULE: "COc1ccc2nc(C)cc(C(=O)NN)c2c1"
  TARGET UNDER TEST: "UniProtKB P0DTD1"
  inhibition / %: 0
- MOLECULE: "NC(=O)C1Cc2ccccc2N(CC(=O)Nc2cnccn2)C1 (stereo unspecified)"
  TARGET UNDER TEST: "UniProtKB P0DTD1"
  inhibition / %: 0
- MOLECULE: "CC(C)(C)c1ccc(N(C(=O)c2cnc[nH]2)C(C(=O)NCCc2cccc(F)c2)c2cccnc2)cc1 (stereo unspecified)"
  TARGET UNDER TEST: "UniProtKB P0DTD1"
  inhibition / %: 100
- MOLECULE: "CC(NC(=O)c1ccc2cn[nH]c2c1)C(=O)Nc1ccc(-n2cnc3ccccc32)cc1 (stereo unspecified)"
  TARGET UNDER TEST: "UniProtKB P0DTD1"
  inhibition / %: 12.8

Consider now this further molecule.
Entry under test: O=C(CCc1cnn[nH]1)NC(Cn1cccn1)c1ccccc1 (stereo unspecified) . Its inhibition was 0
